Tested on: panel of 140 standard cancer cell lines
Assay: ProliFiler-140 cancer cell line screen (CellTiterGlo, 72 h)
Assay type: cell-based
Details: read-out: IC50 [M] (ProliFiler-140); MOLT-4 (Blood)

- Molecule: "COc1cc2cc(C(=O)N3C[C@@H](CCl)c4c3cc(OC(=O)N3CCN(C(=O)CCC(=O)N5CCN(C)CC5)[C@H]5CSSC[C@H]53)c3ccccc43)[nH]c2c(OC)c1OC [P-SS66C-CBI-TMI]"
  U: "M"
  IC50: "8.62e-09"

====

System: panel of 140 standard cancer cell lines
Experiment: ProliFiler-140 cancer cell line screen (CellTiterGlo, 72 h)
Assay type: cell-based
Conditions: HCC202 (Breast); listed as Dox; read-out: IC50 [M] (ProliFiler-140)

- Compound: "COc1cccc2c1C(=O)c1c(O)c3c(c(O)c1C2=O)C[C@@](O)(C(=O)CO)C[C@@H]3O[C@H]1C[C@H](N)[C@H](O)[C@H](C)O1 [doxorubicin, reference compound]"
  Assay System: "panel of 140 standard cancer cell lines"
  IC50 / M: "7.65e-07"

====

Test system: panel of 140 standard cancer cell lines
Test: ProliFiler-140 cancer cell line screen (CellTiterGlo, 72 h)
Assay type: cell-based
Details: MDA MB 435 (Skin); read-out: IC50 [M] (ProliFiler-140)
Description: Incubations were performed for 72 h before automated viability readout with CellTiterGlo (Figure 8). End of Figure S11 (part 5 of 5): ProliFiler-140 cancer cell line screening for cytotoxicity of the prodrugs. 8-data-point dose response curves from CellTiter-Glo® viability readout. ProliFiler-140 cell line panel part V

- Compound: "COc1cc2cc(C(=O)N3C[C@@H](CCl)c4c3cc(OC(=O)N3CCN(C(=O)CCC(=O)N5CCN(C)CC5)[C@H]5CSSC[C@H]53)c3ccccc43)[nH]c2c(OC)c1OC [P-SS66C-CBI-TMI]"
  IC50 [M]: "1.26e-07"

====

Test system: panel of 140 standard cancer cell lines
Test: ProliFiler-140 cancer cell line screen (CellTiterGlo, 72 h)
Assay type: cell-based
Settings: Homo sapiens, JIMT-1, read-out: IC50 [M] (ProliFiler-140), JIMT-1 (Breast)

- Compound: "COc1cc2cc(C(=O)N3C[C@@H](CCl)c4c3cc(OC(=O)N3CCN(C(=O)CCC(=O)N5CCN(C)CC5)[C@H]5CSSC[C@H]53)c3ccccc43)[nH]c2c(OC)c1OC [P-SS66C-CBI-TMI]"
  Assay System: "panel of 140 standard cancer cell lines"
  IC50 / M: "1e-07"

====

Tested on: panel of 140 standard cancer cell lines
Assay: ProliFiler-140 cancer cell line screen (CellTiterGlo, 72 h)
Assay type: cell-based
Settings: Homo sapiens, SU-DHL-5, read-out: IC50 [M] (ProliFiler-140), SU-DHL-5 (Blood)

- Compound: "COc1cc2cc(C(=O)N3C[C@@H](CCl)c4c3cc(OC(=O)N3CCN(C(=O)CCC(=O)N5CCN(C)CC5)[C@H]5CSSC[C@H]53)c3ccccc43)[nH]c2c(OC)c1OC [P-SS66C-CBI-TMI]"
  IC50: "2.6e-09 M"

====

System: panel of 140 standard cancer cell lines
Experiment: ProliFiler-140 cancer cell line screen (CellTiterGlo, 72 h)
Type: cell-based
Details: Homo sapiens, ASPC1, read-out: IC50 [M] (ProliFiler-140), AsPC-1 (Pancreas)

- Compound: "COc1cc2cc(C(=O)N3C[C@@H](CCl)c4c3cc(OC(=O)N3CCN(C(=O)CCC(=O)N5CCN(C)CC5)[C@H]5CSSC[C@H]53)c3ccccc43)[nH]c2c(OC)c1OC [P-SS66C-CBI-TMI]"
  IC50 [M]: "2.6e-07"

====

System: panel of 140 standard cancer cell lines
Assay: ProliFiler-140 cancer cell line screen (CellTiterGlo, 72 h)
Assay type: cell-based
Details: Homo sapiens, HT-1080, HT-1080 (Fibrosarcoma); read-out: IC50 [M] (ProliFiler-140)

- Molecule: "COc1cccc2c1C(=O)c1c(O)c3c(c(O)c1C2=O)C[C@@](O)(C(=O)CO)C[C@@H]3O[C@H]1C[C@H](N)[C@H](O)[C@H](C)O1 [doxorubicin, reference compound]"
  IC50 / M: "7.6e-08"

====

Tested on: NCI-60 standardized human tumor cell line panel
Assay: cells
Format: cell-based
Conditions: HOP-92; AZI sheet; read-out: GI50
Measure Name: log10 of GI50 (log10 of the value in µM)

- Compound: "CN1CCN(C(=O)Oc2cc3c(c4ccccc24)C(CCl)CN3C(=O)c2cc3cc(OCCCN4CCC4)ccc3[nH]2)C2CSSCC21 (mixture of isomers) [Me-SS66C-CBI-AZI]"
  Assay System: "NCI-60 standardized human tumor cell line panel"
  log10 of GI50: -1.28
- Compound: "CN(CCSSCCN1CCOCC1)C(=O)Oc1cc2c(c3ccccc13)[C@H](CCl)CN2C(=O)c1cc2cc(OCCCN3CCC3)ccc2[nH]1 [SS00M-CBI-AZI]"
  Assay System: "NCI-60 standardized human tumor cell line panel"
  log10 of GI50: -0.42
- Compound: "O=C(c1cc2cc(OCCCN3CCC3)ccc2[nH]1)N1C[C@@H](CCl)c2c1cc(OCc1ccccc1)c1ccccc21"
  Assay System: "NCI-60 standardized human tumor cell line panel"
  log10 of GI50: -0.30
- Compound: "CN1CCN(C(=O)CCN(C(=O)Oc2cc3c(c4ccccc24)[C@H](CCl)CN3C(=O)c2cc3cc(OCCCN4CCC4)ccc3[nH]2)[C@H]2CCSSC2)CC1"
  Assay System: "NCI-60 standardized human tumor cell line panel"
  log10 of GI50: 0.00
- Compound: "CN1CCN(C(=O)Oc2cc3c(c4ccccc24)C(CCl)CN3C(=O)c2cc3cc(OCCCN4CCC4)ccc3[nH]2)C2CSSCC21 (mixture of isomers) [Me-SS66T-CBI-AZI]"
  Assay System: "NCI-60 standardized human tumor cell line panel"
  log10 of GI50: -1.74

====

Tested on: NCI-60 standardized human tumor cell line panel
Experiment: cells
Type: cell-based
Conditions: MOLT-4; AZI sheet; read-out: GI50
# note: boundary value 10 nM maps to f; GI50 below it maps to t

- Compound: "CN1CCN(C(=O)CCN(C(=O)Oc2cc3c(c4ccccc24)[C@H](CCl)CN3C(=O)c2cc3cc(OCCCN4CCC4)ccc3[nH]2)[C@H]2CCSSC2)CC1 [P-SS60-CBI-AZI]"
  Qualitative Label: "f"
- Compound: "O=C(c1cc2cc(OCCCN3CCC3)ccc2[nH]1)N1C[C@@H](CCl)c2c1cc(OCc1ccccc1)c1ccccc21 [OBn-CBI-AZI]"
  Qualitative Label: "f"
- Compound: "CN1CCN(C(=O)Oc2cc3c(c4ccccc24)C(CCl)CN3C(=O)c2cc3cc(OCCCN4CCC4)ccc3[nH]2)C2CSSCC21 (mixture of isomers) [Me-SS66C-CBI-AZI]"
  Qualitative Label: "f"
- Compound: "CN1CCN(C(=O)Oc2cc3c(c4ccccc24)C(CCl)CN3C(=O)c2cc3cc(OCCCN4CCC4)ccc3[nH]2)C2CSSCC21 (mixture of isomers) [Me-SS66T-CBI-AZI]"
  Qualitative Label: "t"
- Compound: "CN(CCSSCCN1CCOCC1)C(=O)Oc1cc2c(c3ccccc13)[C@H](CCl)CN2C(=O)c1cc2cc(OCCCN3CCC3)ccc2[nH]1 [SS00M-CBI-AZI]"
  Qualitative Label: "f"

====

Test system: NCI-60 standardized human tumor cell line panel
Test: cells
Assay type: cell-based
Settings: cell line COLO 205 (CO:COLO 205); TMI sheet
Measure Name: NCI-60 screening: Log(RedIndex)

- Compound: "COc1cc2cc(C(=O)N3CC(CCl)c4c3cc(OC(=O)N3CCN(C)C5CSSCC53)c3ccccc43)[nH]c2c(OC)c1OC (mixture of isomers) [Me-SS66C-CBI-TMI]"
  Measure Name: "NCI-60 screening: Log(RedIndex)"
  Quantitative Readout: 0.62
- Compound: "COc1cc2cc(C(=O)N3CC(CCl)c4c3cc(OC(=O)N3CCN(C)C5CSSCC53)c3ccccc43)[nH]c2c(OC)c1OC (mixture of isomers) [Me-SS66T-CBI-TMI]"
  Measure Name: "NCI-60 screening: Log(RedIndex)"
  Quantitative Readout: 1.44
- Compound: "COc1cc2cc(C(=O)N3C[C@@H](CCl)c4c3cc(OC(=O)N(CCC(=O)N3CCN(C)CC3)[C@H]3CCSSC3)c3ccccc43)[nH]c2c(OC)c1OC"
  Measure Name: "NCI-60 screening: Log(RedIndex)"
  Quantitative Readout: 0.6
- Compound: "COc1cc2cc(C(=O)N3C[C@@H](CCl)c4c3cc(OC(=O)N3CCN(C(=O)CCC(=O)N5CCN(C)CC5)[C@H]5CSSC[C@H]53)c3ccccc43)[nH]c2c(OC)c1OC [P-SS66C-CBI-TMI]"
  Measure Name: "NCI-60 screening: Log(RedIndex)"
  Quantitative Readout: 0.98

These entries and their values trace back to paper PMC10141580.
